Parameter: IC50. Scope: all listed entries.
# TARGET UNDER TEST: recombinant human SYK360-635 (Homo sapiens (Human))
# ASSAY: SYK kinase assay (33P ATP filtration, IC50 of SYK inhibition)
# ASSAY CONTEXT: truncated SYK aa 360-635 0.5 nM, ATP 20 μM, peptide 5 μM, 30° C. 15 min; read-out: ENZYME_FILTRATION_IC50
Where a name gives a salt, the structure may show the parent alone.
Give a bare numeral; the unit µM is implied.

Please review the following examples before continuing.
MOLECULE	TARGET UNDER TEST	MEASURED RESULT
CC1CCCN1c1cccc(Nc2cc(-c3cccnc3)nn3ccnc23)n1 (centres unmarked)	recombinant human SYK360-635 (Homo sapiens (Human))	0.0652
CCN(CC)CCOc1cccc(-c2cc(Nc3cccc(N4CCCC4C)n3)c3nccn3n2)c1 (centres unmarked)	recombinant human SYK360-635 (Homo sapiens (Human))	0.261
COc1ccc(-c2cc(Nc3cccc(N4CCCC4C)n3)c3nccn3n2)cc1OC (centres unmarked)	recombinant human SYK360-635 (Homo sapiens (Human))	0.306

Which measured IC50 belongs to CC1CCCN1c1cccc(Nc2cc(-c3ccc4c(c3)OCO4)nn3ccnc23)n1 (centres unmarked) , tested on recombinant human SYK360-635 (Homo sapiens (Human))?
0.115

Which measured IC50 belongs to COc1ccc(Nc2cc(N3CCCC(NC(=O)c4ccc(C(=O)O)cc4)C3)nn3ccnc23)nc1OC (centres unmarked) , tested on recombinant human SYK360-635 (Homo sapiens (Human))?
0.0022

Which measured IC50 belongs to OCC1CCCN1c1cccc(Nc2cc(-c3ccccc3)nn3ccnc23)n1 (centres unmarked) [Example I-31, hydrochloride] , tested on recombinant human SYK360-635 (Homo sapiens (Human))?
0.27

---

# TARGET UNDER TEST: recombinant human SYK360-635 (Homo sapiens (Human), UniProt P43405)
# ASSAY: SYK kinase assay (33P ATP filtration, IC50 of SYK inhibition)
# ASSAY CONTEXT: truncated SYK aa 360-635 0.5 nM, ATP 20 μM, peptide 5 μM, 30° C. 15 min; read-out: ENZYME_FILTRATION_IC50
Counter-ions that a name gives are not always drawn.
READOUT KIND: IC50 (nM)
Give a bare numeral; the unit nM is implied.

MOLECULE	TARGET UNDER TEST	IC50 (nM)
CC1CCCN1c1cccc(Nc2cc(-c3ccncc3)nn3ccnc23)n1 (centres unmarked)	recombinant human SYK360-635 (Homo sapiens (Human), UniProt P43405)	188
CC(=O)N1CCc2ccc(-c3cc(Nc4cccc(N5CCCC5C)n4)c4nccn4n3)cc2C1 (centres unmarked)	recombinant human SYK360-635 (Homo sapiens (Human), UniProt P43405)	56.6
CC(C)(C)C1CCN(c2cccc(Nc3cc(-c4cccc(C(=O)O)c4)nn4ccnc34)n2)C1 (centres unmarked)	recombinant human SYK360-635 (Homo sapiens (Human), UniProt P43405)	696
COc1ccc(Nc2cc(N3CCC(NC(=O)c4ccc(C(=O)O)cc4)C3)nn3ccnc23)nc1OC (centres unmarked)	recombinant human SYK360-635 (Homo sapiens (Human), UniProt P43405)	42.1
C[C@H]1CCCN1c1cccc(Nc2cc(-c3ccc4ncsc4c3)nn3ccnc23)n1	recombinant human SYK360-635 (Homo sapiens (Human), UniProt P43405)	36.1
COCC1CCCN1c1cccc(Nc2cc(-c3ccccc3)nn3ccnc23)n1 (centres unmarked) [Example I-35, hydrochloride]	recombinant human SYK360-635 (Homo sapiens (Human), UniProt P43405)	834

For the molecule shown here, CCN(CC)CCOc1ccc(-c2cc(Nc3cccc(N4CCCC4C)n3)c3nccn3n2)cc1 (centres unmarked) , give the reported IC50.
60.6

For the molecule shown here, CC1CCCN1c1cccc(Nc2cc(-c3cccc(C(=O)Nc4ccc(C(=O)O)cc4)c3)nn3ccnc23)n1 (centres unmarked) , give the reported IC50.
1.65

For the molecule shown here, COC(=O)c1ccc(-c2cc(Nc3cccc(N4CCCC4C)n3)c3nccn3n2)cc1 (centres unmarked) , give the reported IC50.
369

For the molecule shown here, CC1CCCN1c1cccc(Nc2cc(-c3cccc(C#N)c3)nn3ccnc23)n1 (centres unmarked) , give the reported IC50.
614

For the molecule shown here, Cc1ccccc1-c1cc(Nc2cccc(N3CCCC3C)n2)c2nccn2n1 (centres unmarked) , give the reported IC50.
159

For the molecule shown here, COc1cccc(-c2cc(Nc3cccc(N4CCCC4C)n3)c3nccn3n2)c1 (centres unmarked) , give the reported IC50.
292

For the molecule shown here, CC1CCN(c2cccc(Nc3cc(-c4ccccc4)nn4ccnc34)n2)C1 (centres unmarked) , give the reported IC50.
88.5

For the molecule shown here, CC1CCCN1c1cccc(Nc2cc(-c3ccccc3C(F)(F)F)nn3ccnc23)n1 (centres unmarked) [Example I-48, hydrochloride] , give the reported IC50.
410

For the molecule shown here, `COc1ccc(Nc2cc(-c3cccc(C(=O)O)c3)nn3ccnc23)nc1OC` , give the reported IC50.
949

For the molecule shown here, `CC1(C)CCN(c2cccc(Nc3cc(-c4cccc(C(=O)O)c4)nn4ccnc34)n2)C1` , give the reported IC50.
599

For the molecule shown here, COC(=O)c1cccc(-c2cc(Nc3cccc(N4CCC(C(C)(C)C)C4)n3)c3nccn3n2)c1 (centres unmarked) , give the reported IC50.
1260

For the molecule shown here, CC1CCCN1c1cccc(Nc2cc(-c3ccc(C(C)(C)C)cc3)nn3ccnc23)n1 (centres unmarked) , give the reported IC50.
610

For the molecule shown here, `COc1ccc(Nc2cc(-c3ccc(C(=O)O)cc3)nn3ccnc23)nc1OC` , give the reported IC50.
265

For the molecule shown here, CC1CCCN1c1cccc(Nc2cc(-c3ccc(C(=O)O)cc3)nn3ccnc23)n1 (centres unmarked) , give the reported IC50.
84.2
